Field: pEC50. Provide a value for each of the compounds that follow.
# testTarget: human GPR119 receptor (Homo sapiens, UniProt Q8TDV5, S329A/T327A)
# Construct: N-terminal leader […]; expressed in transfected cells
# Sequence (Q8TDV5 with tags, fused parts or gaps T327A/S329A): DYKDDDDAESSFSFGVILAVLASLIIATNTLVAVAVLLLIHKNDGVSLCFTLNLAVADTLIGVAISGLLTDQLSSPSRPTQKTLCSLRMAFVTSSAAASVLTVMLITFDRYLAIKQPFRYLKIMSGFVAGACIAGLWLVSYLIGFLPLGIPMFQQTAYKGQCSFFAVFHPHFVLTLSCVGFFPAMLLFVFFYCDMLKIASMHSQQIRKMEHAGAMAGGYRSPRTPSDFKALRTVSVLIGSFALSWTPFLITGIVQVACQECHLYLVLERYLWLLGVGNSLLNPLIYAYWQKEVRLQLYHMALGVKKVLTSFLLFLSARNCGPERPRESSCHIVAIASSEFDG
# assayProcedure: cAMP assay (LANCE cAMP-384) in HEK293 cells stably expressing mutant human GPR119 receptor
# Type: cell-based
# assayConditions: the 37th table, compounds 66-52 to 66-64; read-out: EC50
The scale used: pEC50 is minus the common logarithm of the concentration in molar units.

So, CCc1ccc(C(C)N2CCC(ON=C3CCN(c4cc(F)c(S(C)(=O)=O)cc4F)CC3)CC2)cc1 (stereo not drawn) [Example 66-58] ? Its pEC50 was 7.14

Value of pEC50 reported for the compound C/C=C/c1ccc(CN2CCC(ON=C3CCN(c4cc(F)c(S(C)(=O)=O)cc4F)CC3)CC2)cc1F [Example 66-61] is 7.31

In plain terms, CCCc1ccc(CN2CCC(ON=C3CCN(c4cc(F)c(S(C)(=O)=O)cc4F)CC3)CC2)cc1 [Example 66-53] has a documented pEC50 of 7.46

# compound CCCCc1ccc(CN2CCC(ON=C3CCN(c4cc(F)c(S(C)(=O)=O)cc4F)CC3)CC2)cc1 [Example 66-57] ; its pEC50 = 7.54

// pEC50 lookup, compound = CS(=O)(=O)c1cc(F)c(N2CCC(=NOC3CCN(Cc4ccc(Cl)cc4)CC3)CC2)cc1F [Example 66-56] , result: 7.30

Just so you know, measured pEC50 for C/C=C/c1ccc(CN2CCC(ON=C3CCN(c4cc(F)c(S(C)(=O)=O)cc4F)CC3)CC2)c(F)c1 [Example 66-62] came out at 6.87

Measured pEC50 of CCCc1ccc(CN2CCC(ON=C3CCN(c4cc(F)c(S(C)(=O)=O)cc4F)CC3)CC2)cc1F [Example 66-60] : 7.51

Form: compound = Cc1ccc(CN2CCC(ON=C3CCN(c4cc(F)c(S(C)(=O)=O)cc4F)CC3)CC2)cc1 [Example 66-54] ; pEC50 = 7.36

---

Hi there, I'd appreciate the recorded EC50 for every entry that follows.
# testTarget: human GPR119 receptor (Homo sapiens, UniProt Q8TDV5, S329A/T327A)
# Construct: N-terminal leader […]; expressed in transfected cells
# assayProcedure: cAMP assay (LANCE cAMP-384) in HEK293 cells stably expressing mutant human GPR119 receptor
# Format: cell-based
# assayConditions: the 19th table; unit inferred; read-out: EC 50
# Protocol: Quantitative detection of cAMP accumulation from cells expressing human GPR119 receptor was achieved using Perkin Elmer's LANCE cAMP-384 Kit (Cat#AD0264) according to the manufacturer's protocol. […] After 1 hour, bound europium-labeled cAMP tracer was measured using a Perkin Elmer ViewLux. The quantity of cAMP generated in each well was derived from a standard curve. […]

Reported EC50 of CCc1cnc(N2CCC(ON=C3CCN(c4cc(F)c(C(=O)NCC5CCNCC5)cc4F)CC3)CC2)nc1 [Example 29-128] : 70 nM

Entry under test: CCc1cnc(N2CCC(ON=C3CCN(c4cc(F)c(C(=O)N5C[C@H]6CNC[C@H]6C5)cc4F)CC3)CC2)nc1 [Example 29-111] . Its EC50 was 295 nM

// recorded EC50 for CCc1cnc(N2CCC(ON=C3CCN(c4cc(F)c(C(=O)N5C[C@@H]6C[C@H]5CN6)cc4F)CC3)CC2)nc1 [Example 29-115] : 2010 nM

So for CCc1cnc(N2CCC(ON=C3CCN(c4cc(F)c(C(=O)NCC5CCCN5)cc4F)CC3)CC2)nc1 (centres unmarked) [Example 29-122] , the logged EC50 turned out to be 176 nM

Noted for CCc1cnc(N2CCC(ON=C3CCN(c4cc(F)c(C(=O)N5CC[C@H](N)C5)cc4F)CC3)CC2)nc1 [Example 29-119] : its EC50 reads 75 nM
